Reference source for all entries: patent US20120164137A1

Molecular target: T1, Recombinant human folate receptor alpha (FRA) (human, UniProt P15328 25-234)
T1 construct: Immobilised on a CM5 chip by amine coupling; also called FR-alpha
T1 sequence (P15328 25-234 limits assumed): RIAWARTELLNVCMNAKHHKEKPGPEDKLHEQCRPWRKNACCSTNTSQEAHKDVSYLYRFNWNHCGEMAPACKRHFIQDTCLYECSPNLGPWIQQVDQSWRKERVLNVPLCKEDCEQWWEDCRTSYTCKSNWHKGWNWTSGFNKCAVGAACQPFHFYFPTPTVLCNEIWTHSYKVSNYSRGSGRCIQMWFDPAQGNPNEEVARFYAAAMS
Test: SPR, FRA on CM5 chip, parallel line analysis; reference standard = 100%
MEASURED PARAMETER: Measured Potency (%)
Answers are plain numbers, in %.

Some solved entries appear below for comparison.
[[record]]
binder = "MORAb-003 anti-FRA antibody, lot NB809-67 (low DO; harvested 13 days after initiation of culture) (antibody, human IgG1, kappa, V domains shown, N-linked neutral glycans at Asn299 in SEQ ID NO: 5) VH: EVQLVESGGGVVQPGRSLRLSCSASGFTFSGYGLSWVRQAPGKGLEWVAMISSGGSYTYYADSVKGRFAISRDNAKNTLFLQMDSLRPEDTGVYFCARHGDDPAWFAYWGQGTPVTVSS VL: DIQLTQSPSSLSASVGDRVTITCSVSSSISSNNLHWYQQKPGKAPKPWIYGTSNLASGVPSRFSGSGSGTDYTFTISSLQPEDIATYYCQQWSSYPYMYTFGQGTKVEIKR"
measured_parameter = "Measured Potency (%)"
number = 56.2

[[record]]
binder = "MORAb-003 anti-FRA antibody, lot NB810-12 (low temperature; harvested 14 days after initiation of culture) (antibody, human IgG1, kappa, V domains shown, N-linked neutral glycans at Asn299 in SEQ ID NO: 5) VH: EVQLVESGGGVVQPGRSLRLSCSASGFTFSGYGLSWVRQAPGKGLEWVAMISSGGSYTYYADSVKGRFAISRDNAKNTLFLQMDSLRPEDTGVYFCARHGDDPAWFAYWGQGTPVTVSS VL: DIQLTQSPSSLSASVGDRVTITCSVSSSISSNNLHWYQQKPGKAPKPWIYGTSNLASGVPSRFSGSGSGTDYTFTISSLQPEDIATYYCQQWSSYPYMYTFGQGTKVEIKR"
measured_parameter = "Measured Potency (%)"
number = 87.3


Could you report Measured Potency (%) for every entry in the following list?
1. MORAb-003 anti-FRA antibody, lot NB809-66 (0.5 mM Na butyrate; harvested 13 days after initiation of culture) (antibody, human IgG1, kappa, V domains shown, N-linked neutral glycans at Asn299 in SEQ ID NO: 5) VH: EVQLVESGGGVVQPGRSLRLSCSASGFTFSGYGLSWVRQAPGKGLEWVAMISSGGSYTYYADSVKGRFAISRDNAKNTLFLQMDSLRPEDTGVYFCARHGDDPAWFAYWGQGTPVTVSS VL: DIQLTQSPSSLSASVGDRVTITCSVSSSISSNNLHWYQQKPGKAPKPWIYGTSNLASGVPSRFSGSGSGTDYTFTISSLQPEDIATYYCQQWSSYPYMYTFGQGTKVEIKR
2. MORAb-003 anti-FRA antibody, lot NB809-65 (positive control; harvested 13 days after initiation of culture) (antibody, human IgG1, kappa, V domains shown, N-linked neutral glycans at Asn299 in SEQ ID NO: 5, also called Pos. ctl; positive control (round 2)) VH: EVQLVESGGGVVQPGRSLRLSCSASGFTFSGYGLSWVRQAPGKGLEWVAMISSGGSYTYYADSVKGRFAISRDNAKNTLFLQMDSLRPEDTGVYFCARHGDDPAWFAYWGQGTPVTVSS VL: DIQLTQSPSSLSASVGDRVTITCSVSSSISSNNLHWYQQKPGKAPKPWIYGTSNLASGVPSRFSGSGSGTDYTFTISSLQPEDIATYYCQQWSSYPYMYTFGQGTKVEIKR
3. MORAb-003 anti-FRA antibody, lot NB859-24 (harvested 10 days after initiation of culture) (antibody, human IgG1, kappa, V domains shown, N-linked neutral glycans at Asn299 in SEQ ID NO: 5, also called Day 10 harvest) VH: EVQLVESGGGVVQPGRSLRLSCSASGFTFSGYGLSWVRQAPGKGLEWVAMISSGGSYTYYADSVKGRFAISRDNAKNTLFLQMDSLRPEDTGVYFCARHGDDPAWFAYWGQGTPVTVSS VL: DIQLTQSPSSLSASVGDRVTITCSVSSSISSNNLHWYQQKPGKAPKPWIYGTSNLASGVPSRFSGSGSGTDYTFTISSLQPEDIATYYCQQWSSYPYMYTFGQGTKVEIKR
4. MORAb-003 anti-FRA antibody, lot NB859-25 (harvested 14 days after initiation of culture) (antibody, human IgG1, kappa, V domains shown, N-linked neutral glycans at Asn299 in SEQ ID NO: 5, also called Day 14 harvest; positive control (round 3)) VH: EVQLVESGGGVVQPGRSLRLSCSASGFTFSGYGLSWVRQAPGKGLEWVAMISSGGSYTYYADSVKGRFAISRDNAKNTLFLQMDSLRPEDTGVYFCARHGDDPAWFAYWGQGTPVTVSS VL: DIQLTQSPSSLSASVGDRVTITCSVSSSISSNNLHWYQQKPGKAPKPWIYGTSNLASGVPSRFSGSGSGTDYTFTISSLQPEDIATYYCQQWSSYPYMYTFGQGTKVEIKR
5. MORAb-003 anti-FRA antibody, lot NB859-27 (harvested 20 days after initiation of culture) (antibody, human IgG1, kappa, V domains shown, N-linked neutral glycans at Asn299 in SEQ ID NO: 5, also called Day 20 harvest) VH: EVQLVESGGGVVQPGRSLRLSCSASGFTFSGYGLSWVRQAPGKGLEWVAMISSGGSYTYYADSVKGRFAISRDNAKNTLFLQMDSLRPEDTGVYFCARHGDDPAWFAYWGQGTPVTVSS VL: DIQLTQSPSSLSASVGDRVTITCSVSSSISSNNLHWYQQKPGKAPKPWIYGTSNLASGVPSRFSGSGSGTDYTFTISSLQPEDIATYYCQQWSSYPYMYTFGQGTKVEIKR
6. MORAb-003 anti-FRA antibody, lot NB809-70 (CuCl supplement; harvested 13 days after initiation of culture) (antibody, human IgG1, kappa, V domains shown, N-linked neutral glycans at Asn299 in SEQ ID NO: 5) VH: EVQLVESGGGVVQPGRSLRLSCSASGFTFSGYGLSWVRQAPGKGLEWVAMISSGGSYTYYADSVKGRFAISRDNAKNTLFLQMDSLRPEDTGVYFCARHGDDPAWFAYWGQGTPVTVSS VL: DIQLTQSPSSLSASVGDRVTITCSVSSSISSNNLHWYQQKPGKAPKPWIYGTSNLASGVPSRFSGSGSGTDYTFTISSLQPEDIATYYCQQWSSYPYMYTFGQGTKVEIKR

1. 61.5
2. 49.7
3. 33.8
4. 51.9
5. 53.3
6. 48

Endpoint output: Measured Potency (%) of MORAb-003 anti-FRA antibody, lot NB809-68 (high CO2; harvested 13 days after initiation of culture) (antibody, human IgG1, kappa, V domains shown, N-linked neutral glycans at Asn299 in SEQ ID NO: 5) VH: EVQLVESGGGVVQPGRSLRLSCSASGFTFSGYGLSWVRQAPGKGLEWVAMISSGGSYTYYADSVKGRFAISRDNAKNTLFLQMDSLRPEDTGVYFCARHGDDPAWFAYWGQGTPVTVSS VL: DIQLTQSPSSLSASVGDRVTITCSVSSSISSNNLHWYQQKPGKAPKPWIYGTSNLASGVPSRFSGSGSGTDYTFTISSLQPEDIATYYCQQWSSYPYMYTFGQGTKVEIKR . Value?
50.5
